Catalogue of IC50 values
# study.target: recombinant human Lp-PLA2 (Homo sapiens)
# procedure.summary: Recombinant human Lp-PLA2 assay (rhLp-PLA2, PED6 assay)
# Type: biochemical
# experimental.context: upper limit for pIC50 in this assay is 9.3; read-out: pIC50 values in the PED6 assay (converted)

- smiles.string: "CN1CCCn2c1cc(OCc1ccc(Oc3cccc(F)c3)c(C#N)c1)nc2=O"
  IC50: "≤ 0.001 µM"
- smiles.string: "CN1CCCn2c1cc(OCc1ccc(Oc3ccc(F)c(F)c3)c(C#N)c1)nc2=O"
  IC50: "≤ 0.01 µM"
- smiles.string: "CN1CCCn2c1cc(OCc1ccc(Oc3ccc(C(F)(F)F)cn3)c(C#N)c1)nc2=O"
  IC50: "≤ 0.01 µM"
- smiles.string: "CN1CCCn2c1cc(OCc1ccc(Oc3ccc(C(F)(F)F)cc3)c(C#N)c1)nc2=O"
  IC50: "≤ 0.01 µM"

====

Catalogue of IC50 values
# study.target: Lp-PLA2 in human plasma (Homo sapiens)
# Construct: from tissue; host or cells: pooled human plasma
# Sequence (Q13093 22-441): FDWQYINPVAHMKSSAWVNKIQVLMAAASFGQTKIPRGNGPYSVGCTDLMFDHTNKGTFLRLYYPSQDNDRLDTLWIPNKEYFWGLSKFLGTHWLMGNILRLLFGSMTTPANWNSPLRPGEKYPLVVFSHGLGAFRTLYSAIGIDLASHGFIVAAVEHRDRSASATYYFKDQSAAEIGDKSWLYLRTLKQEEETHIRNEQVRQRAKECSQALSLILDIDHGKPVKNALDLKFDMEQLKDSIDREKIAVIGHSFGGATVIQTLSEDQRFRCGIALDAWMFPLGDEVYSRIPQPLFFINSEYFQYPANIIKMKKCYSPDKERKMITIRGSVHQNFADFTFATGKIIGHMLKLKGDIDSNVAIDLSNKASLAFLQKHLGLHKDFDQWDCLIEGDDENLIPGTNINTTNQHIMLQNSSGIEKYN
# procedure.summary: Lp-PLA2 human plasma assay (Thio-PAF assay)
# Type: biochemical
# experimental.context: pooled human plasma; read-out: pIC50 values in the thio-PAF assay (converted)

- compound: "CC(C)N1CCCn2c1cc(OCc1ccc(F)c(F)c1)nc2=O [Example 40]"
  IC50: "≤ 0.1 µM"
- compound: "CN1CCCn2c1cc(OCc1cc(F)cc(C#N)c1)nc2=O [Example 33]"
  IC50: "≤ 0.1 µM"
- compound: "CN1CCCn2c1cc(OCc1cccc(F)c1F)nc2=O [Example 12]"
  IC50: "≤ 1 µM"
- compound: "O=c1nc(OCc2cc(F)c(Oc3cccc(F)c3)c(F)c2)cc2n1CCCN2 [Example 115]"
  IC50: "≤ 0.1 µM"
- compound: "CN1CCCn2c1cc(OCc1ccc(Oc3ccc(F)c(F)c3)c(F)c1)nc2=O [Example 5]"
  IC50: "≤ 0.1 µM"

====

# study.target: recombinant human Lp-PLA2 (Homo sapiens, UniProt Q13093)
# procedure.summary: Recombinant human Lp-PLA2 assay (rhLp-PLA2, PED6 assay)
# Assay type: biochemical
# experimental.context: Table 1; upper limit for pIC50 in this assay is 9.3; read-out: rhLp-PLA2 (PED6 assay) (pIC50) (converted)
Catalogue of IC50 values
readout.kind: IC50

- smiles.string: "O=c1nc(OCc2cc(F)c(Oc3ccc(C(F)(F)F)nc3)c(F)c2)cc2n1CCCN2"
  readout.kind: "IC50"
  measured: "< 0.501 nM"
- smiles.string: "O=c1nc(OCc2cc(F)c(Oc3ccc(F)c(C(F)(F)F)c3)c(F)c2)cc2n1CCCN2"
  readout.kind: "IC50"
  measured: "≤ 0.501 nM"
- smiles.string: "CN1CCCn2c1cc(OCc1cc(F)c(Oc3ccc(F)c(Cl)c3)c(F)c1)nc2=O"
  readout.kind: "IC50"
  measured: "< 0.501 nM"
